Examples of compounds with documented pIC50 follow.
- Test Target: GST-PTP1B Non-Mutated (Cys215) (Homo sapiens)
- Sequence (P18031 1-320): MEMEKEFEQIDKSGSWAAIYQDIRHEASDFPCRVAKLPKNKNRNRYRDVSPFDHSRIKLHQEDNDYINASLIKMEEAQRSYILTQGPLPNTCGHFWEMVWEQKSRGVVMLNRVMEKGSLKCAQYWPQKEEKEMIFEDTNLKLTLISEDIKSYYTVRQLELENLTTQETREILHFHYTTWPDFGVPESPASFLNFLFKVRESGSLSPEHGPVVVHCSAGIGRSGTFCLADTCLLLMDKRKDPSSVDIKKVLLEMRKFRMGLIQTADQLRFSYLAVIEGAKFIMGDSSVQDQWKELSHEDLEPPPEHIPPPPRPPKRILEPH
- Procedure Text: GST-PTP1B SPA binding assay, non-mutated (Cys215) enzyme; competition with tritiated BzN-EJJ-CONH2
- Protocol Conditions: non-mutated (Cys215) GST-PTP1B
- Experimental: Enzyme: Human recombinant PTPLB, containing ammo acids 1-320, (Seq. ID No. 1) fused to GST enzyme (glutathione S-transferase) purified by affinity chromatography. Wild type (Seq. ID No. 1) contains active site cysteine(215), whereas mutant (Seq. ID No. 7) contains active site serine(215). Tritiated peptide: Bz-NEJJ-CONH2, Mwt. 808, empirical formula, C32H32T2O12P2F4 […] 9. […] The binding signal is quantified on a Microbeta 96-well plate counter. […] 12. Percentage of inhibition is calculated accordingly. […]
pIC50: −log10 of the molar value. Square brackets hold non-standard residues; d marks the D form. Peptide text beside a SMILES is read from it. * marks the point of attachment. F2Pmp = N[C@@H](Cc1ccc(C(F)(F)P(=O)(O)O)cc1)C(=O)O; Bz = O=C(c1ccccc1)*
Property: pIC50

Compound: Cc1cc(Cl)c2c(c1O)C(=O)C=CC2=O [Quinone, reference compound]
Assay Value: 5.40
//
Compound: NC(=O)[C@H](Cc1ccc(C(F)(F)P(=O)(O)O)cc1)NC(=O)[C@H](Cc1ccc(C(F)(F)P(=O)(O)O)cc1)NC(=O)[C@H](CCC(=O)O)NC(=O)c1ccccc1 [Example 1] (Bz-Glu-[F2Pmp]-[F2Pmp]-NH2)
Assay Value: 7.85

Origin of measurements: patent US6348572B1
